measurement-target: human Edg-1(S1P1) (Homo sapiens)
experiment-summary: Membrane system binding test: inhibition of [33P]-S1P binding to the membrane fraction of Edg-1(S1P1) gene transferred HEK-293 cells
setup-conditions: radioligand binding, membrane fraction; read-out: Kd of binding to human Edg-1(S1P1) gene transferred HEK-293 cell strain membrane fraction

{"columns": ["compound", "Kd / nM"],
 "data": [
  ["CCCCCCCCCCCCC/C=C\\C(O)C(N)COP(=O)(O)O (stereo not shown) [[^33P]-S1P, reference compound]", 0.15]
]}

###

measurement-target: human Edg-1(S1P1) (Homo sapiens, UniProt P21453)
Construct: expressed in transfected cells; host or cells: HEK-293
Sequence (P21453 whole entry): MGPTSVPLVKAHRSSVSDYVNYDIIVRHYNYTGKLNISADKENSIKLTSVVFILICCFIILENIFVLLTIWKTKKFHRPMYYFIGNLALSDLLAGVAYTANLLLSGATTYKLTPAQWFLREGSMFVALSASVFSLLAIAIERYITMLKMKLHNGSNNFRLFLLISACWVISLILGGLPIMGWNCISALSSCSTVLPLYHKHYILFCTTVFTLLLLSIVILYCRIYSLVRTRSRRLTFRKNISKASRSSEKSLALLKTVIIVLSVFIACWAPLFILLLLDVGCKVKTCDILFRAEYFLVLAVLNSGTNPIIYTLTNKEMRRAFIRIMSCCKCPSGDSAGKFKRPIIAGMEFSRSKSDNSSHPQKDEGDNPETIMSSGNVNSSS
experiment-summary: Membrane system binding test: inhibition of [33P]-S1P binding to the membrane fraction of Edg-1(S1P1) gene transferred HEK-293 cells
setup-conditions: 10 μM compound; [33P]-S1P 0.1 nM; membrane fraction of Edg-1(S1P1) gene transferred HEK-293 cells; read-out: Membrane system binding test % inhibition (10 μM)
# cutoff 80% applies to inhibition at 10 µM; >= gives condition met, < gives condition not met

{"columns": ["compound", "group-label"],
 "data": [
  ["CCn1c(OC)nnc1[C@@H](C)NS(=O)(=O)c1cc(Cl)c(Cl)s1 [Compound 220]", "condition met"],
  ["CCn1c(SC2CCc3ccccc3C2)nnc1[C@@H](C)NS(=O)(=O)c1ccc(Cl)cc1 (some centres unmarked) [Compound 36]", "condition met"],
  ["CCn1c(OCC(F)(F)F)nnc1[C@@H](C)NS(=O)(=O)c1ccc(Cl)cc1 [Compound 395]", "condition met"],
  ["CCn1c(OC)nnc1[C@@H](C)NS(=O)(=O)c1cc(C(F)(F)F)cc(C(F)(F)F)c1 [Compound 265]", "condition not met"],
  ["CCn1c(OC)nnc1[C@@H](C)NS(=O)(=O)c1cc(F)c(F)cc1F [Compound 302]", "condition not met"],
  ["CCn1c(SC2CCN(C)CC2)nnc1[C@@H](C)NS(=O)(=O)c1ccc(Cl)cc1 [Compound 70]", "condition met"],
  ["CCn1c(OC)nnc1[C@H](C)NS(=O)(=O)c1cccc(Cl)c1 [Compound 193]", "condition not met"],
  ["CCn1c(OC)nnc1[C@@H](C)NS(=O)(=O)c1ccc2c(c1)OCCCO2 [Compound 343]", "condition not met"],
  ["CCn1c(SCc2cccc3ccccc23)nnc1[C@@H](C)NS(=O)(=O)c1ccc(Cl)cc1 [Compound 48]", "condition met"],
  ["CCn1c(OC)nnc1[C@@H](C)NS(=O)(=O)c1ccc(Br)cc1F [Compound 288]", "condition not met"],
  ["CCn1c(SCCCN2CCCC2=O)nnc1[C@@H](C)NS(=O)(=O)c1ccc(Cl)cc1 [Compound 79]", "condition met"],
  ["CCCCOc1nnc([C@@H](C)NS(=O)(=O)c2ccc(Cl)cc2)n1CC [Compound 396]", "condition met"],
  ["CCOc1nnc([C@@H](C)NS(=O)(=O)c2ccc([N+](=O)[O-])cc2)n1CC [Compound 413]", "condition met"],
  ["CCn1c(OC)nnc1[C@@H](C)NS(=O)(=O)c1ccc(Cl)cc1F [Compound 312]", "condition not met"],
  ["CCn1c(SCC=C(C)C)nnc1[C@@H](C)NS(=O)(=O)c1ccc(Cl)cc1 [Compound 28]", "condition met"],
  ["CCn1c(OC)nnc1[C@H](C)NS(=O)(=O)c1ccccc1Br [Compound 204]", "condition not met"]
]}
